Biological target: human renin (Homo sapiens, UniProt P00797)
Construct: angiotensin-I released from human renin substrate by human resin in human plasma; from tissue; host or cells: human plasma (containing EDTA)
Sequence (P00797 67-406): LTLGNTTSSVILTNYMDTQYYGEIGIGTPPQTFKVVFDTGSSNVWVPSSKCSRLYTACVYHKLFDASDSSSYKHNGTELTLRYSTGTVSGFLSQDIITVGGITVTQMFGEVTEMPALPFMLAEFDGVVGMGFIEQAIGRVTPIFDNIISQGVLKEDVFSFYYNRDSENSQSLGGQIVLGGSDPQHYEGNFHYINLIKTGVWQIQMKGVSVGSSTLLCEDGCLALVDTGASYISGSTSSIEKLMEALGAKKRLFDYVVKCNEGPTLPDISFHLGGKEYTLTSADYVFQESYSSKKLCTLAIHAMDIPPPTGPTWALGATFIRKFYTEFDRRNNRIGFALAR
Test: human renin-renin substrate reaction in vitro; radioimmunoassay of angiotensin-I released in human plasma
Format: biochemical
Settings: Table 5; human renin-renin substrate reaction in vitro; read-out: IC50
Where a SMILES comes first, the peptide text is derived from it. The star is where a group is joined. Leuψ(CH2NH)ValIleHisOH = CC[C@H](C)[C@H](NC(=O)[C@@H](NC[C@H](CC(C)C)N*)C(C)C)C(=O)N[C@@H](Cc1c[nH]cn1)C(=O)O
Assign pIC50 to each entry below.
As a rule, pIC50 stands for the negative log10 of the concentration, concentration in M.

Query: pIC50 for CC[C@H](C)[C@H](NC(=O)[C@@H](NC[C@H](CC(C)C)NC(=O)[C@H](Cc1c[nH]cn1)NC(=O)[C@H](Cc1ccccc1)NC(=O)[C@@H]1CCCN1C(=O)[C@@H](N)Cc1c[nH]cn1)C(C)C)C(=O)N[C@@H](Cc1c[nH]cn1)C(=O)O [Example V] (H-HPFH-{Leuψ(CH2NH)ValIleHisOH}) ?
Result: 6.59

Query: Item under review: CC(C)C[C@@H](CN[C@@H](CC(C)C)C(=O)N[C@H](C(=O)N[C@@H](Cc1ccc(O)cc1)C(=O)O)C(C)C)NC(=O)[C@H](Cc1c[nH]cn1)NC(=O)[C@H](Cc1ccccc1)NC(=O)[C@@H]1CCCN1C(=O)[C@H](N)Cc1c[nH]cn1 [Example IV] . Reported pIC50?
Result: 6.00

Query: Name the recorded pIC50 for CC(C)C[C@@H](CN[C@H](C(=O)N[C@H](C(=O)N[C@@H](Cc1ccc(O)cc1)C(=O)O)C(C)C)C(C)C)NC(=O)[C@H](Cc1c[nH]cn1)NC(=O)[C@H](Cc1ccccc1)NC(=O)[C@@H]1CCCN1C(=O)[C@@H](N)Cc1c[nH]cn1 [Example XII] .
Result: 5.82

Query: Looking for the measured pIC50 of CC(C)C[C@@H](CN([C@@H](CC(C)C)C(=O)N[C@H](C(=O)N[C@@H](Cc1ccc(O)cc1)C(=O)O)C(C)C)S(=O)(=O)c1ccccc1)NC(=O)[C@H](Cc1c[nH]cn1)NC(=O)[C@H](Cc1ccccc1)NC(=O)[C@@H]1CCCN1C(=O)[C@@H](N)Cc1c[nH]cn1 [Example III] , can you help?
Result: 5.82

----------
Target: human renin (Homo sapiens, UniProt P00797)
Construct: angiotensin-I released from human renin substrate by human resin in human plasma; from tissue; host or cells: human plasma (containing EDTA)
Experiment: human renin-renin substrate reaction in vitro; radioimmunoassay of angiotensin-I released in human plasma
Format: biochemical
Details: Table I; human renin in human plasma; read-out: IC50, μM human
Where a SMILES comes first, the peptide text is derived from it. [ ]: non-standard residue; d: D form. The star is where a group is joined. Leuψ(CH2NH)ValIleHisOH = CC[C@H](C)[C@H](NC(=O)[C@@H](NC[C@H](CC(C)C)N*)C(C)C)C(=O)N[C@@H](Cc1c[nH]cn1)C(=O)O; X5 = CC(C)C[C@@H](CN[C@H](C(=O)N[C@@H](Cc1c[nH]cn1)C(=O)NCCCCCN)C(C)C)N*
measure: IC50

Query: Request the reported IC50 associated with CC[C@H](C)[C@H](NC(=O)[C@@H](NC[C@H](CC(C)C)NC(=O)[C@H](Cc1c[nH]cn1)NC(=O)[C@H](Cc1ccccc1)NC(=O)[C@@H]1CCCN1C(=O)[C@@H](N)Cc1c[nH]cn1)C(C)C)C(=O)N[C@@H](Cc1c[nH]cn1)C(=O)N[C@H](CCCCN)C(=O)O [XXI]
Result: 0.05 µM

Query: Suppose we examine the molecule CC[C@H](C)[C@H](NC(=O)[C@@H](NC[C@H](CC(C)C)NC(=O)[C@H](Cc1c[nH]cn1)NC(=O)[C@H](Cc1ccccc1)NC(=O)[C@@H]1CCCN1C(=O)[C@H](Cc1c[nH]cn1)NC(=O)[C@H]1CCCN1)C(C)C)C(=O)N[C@@H](Cc1c[nH]cn1)C(=O)O [XXIII] (H-[dP]HPFH-{Leuψ(CH2NH)ValIleHisOH}) ; what IC50 value has been reported?
Result: 0.025 µM

Query: Fill blank: measured IC50 of the molecule CC[C@H](C)[C@H](NC(=O)[C@@H](NC[C@H](CC(C)C)NC(=O)[C@H](Cc1c[nH]cn1)NC(=O)[C@H](Cc1ccccc1)NC(=O)[C@@H]1CCCN1C(=O)[C@H](Cc1c[nH]cn1)NC(=O)[C@@H]1CCCN1)C(C)C)C(=O)N[C@@H](Cc1c[nH]cn1)C(=O)N[C@H](CCCCN)C(=O)O [XXXVIII] is ____.
Result: 0.1 µM

Query: # IC50 lookup, item CC[C@H](C)[C@H](NC(=O)[C@@H](NC[C@H](CC(C)C)NC(=O)[C@H](Cc1c[nH]cn1)NC(=O)[C@H](Cc1ccccc1)NC(=O)[C@@H]1CCCN1C(=O)[C@H](Cc1c[nH]cn1)NC(=O)[C@@H]1CCCN1)C(C)C)C(=O)N[C@@H](Cc1c[nH]cn1)C(=O)N[C@@H](CCCCN)C(=O)O [XIX]
Result: 0.008 µM

Query: Can you look up the measured IC50 of CC(C)C[C@@H](CN[C@H](C(=O)N[C@@H](Cc1c[nH]cn1)C(=O)NCCCCCN)C(C)C)NC(=O)[C@H](Cc1c[nH]cn1)NC(=O)[C@H](Cc1ccccc1)NC(=O)[C@@H]1CCCN1C(=O)[C@H](Cc1c[nH]cn1)NC(=O)[C@@H]1CCCN1 [XVIII] (H-PHPFH-X5) for me?
Result: 3 µM

Query: What value of IC50 has been reported for the following molecule? CC[C@H](C)[C@H](NC(=O)[C@@H](NC[C@H](CC(C)C)NC(=O)[C@H](Cc1c[nH]cn1)NC(=O)[C@H](Cc1ccccc1)NC(=O)[C@@H]1CCCN1C(=O)[C@H](Cc1c[nH]cn1)NC(=O)[C@@H]1CCCN1)C(C)C)C(=O)N[C@@H](Cc1c[nH]cn1)C(=O)O [XXII] (H-PHPFH-{Leuψ(CH2NH)ValIleHisOH})
Result: 0.01 µM

Query: Quick one: IC50 for CC[C@H](C)[C@H](NC(=O)[C@@H](NC[C@H](CC(C)C)NC(=O)[C@H](Cc1c[nH]cn1)NC(=O)[C@H](Cc1ccccc1)NC(=O)[C@@H]1CCCN1C(=O)[C@@H](Cc1c[nH]cn1)NC(=O)[C@@H]1CCCN1)C(C)C)C(=O)N[C@@H](Cc1c[nH]cn1)C(=O)N[C@H](CCCCN)C(=O)O [Example XL] ?
Result: 0.2 µM

meta.source: patent US4713445A
